Origin of the recorded values: ChEMBL document CHEMBL3045980

test system: Spodoptera littoralis; experiment: Antifeedant activity against final stadium larval stage of Spodoptera littoralis in compound pretreated glass fibre disks assessed as mass of disks eaten at 10 ppm by choice bioassay; format: functional
Readout: AFI (%)
Your answer is read as %, so omit the unit and give the number.

Could you share which AFI value was measured for `C/C=C(\C)C(=O)O[C@H]1C[C@@H](OC(C)=O)[C@@]2(C(=O)OC)CO[C@H]3[C@@H](O)[C@@](C)([C@]45O[C@@]4(C)[C@H]4C[C@@H]5O[C@@H]5OCC[C@@]54OC)[C@@H]4[C@@](OC)(C(=O)OC)OC[C@@]14[C@@H]32` ?
95

Please report the recorded AFI for `C/C=C(\C)C(=O)O[C@H]1C[C@@H](O)[C@@]23CO[C@@H]4[C@@H](O)[C@]5(C)[C@@H]([C@]1(COC2=O)[C@@H]43)[C@](O)(C(=O)OC)O[C@@]51[C@H]2C[C@H]3[C@]4(C=CO[C@H]4O2)O[C@]31C` .
16

Give its AFI value. Item: `C/C=C(\C)C(=O)O[C@H]1C[C@@H](OC(C)=O)[C@@]2(C(=O)OC)CO[C@H]3C(=O)[C@@](C)([C@]45O[C@@]4(C)[C@H]4C[C@@H]5O[C@@H]5OCC[C@@]54OC)[C@@H]4[C@@](OC)(C(=O)OC)OC[C@@]14[C@@H]32`
100

Quick check: AFI of `C/C=C(\C)C(=O)O[C@H]1C[C@@H](OC(C)=O)[C@@]2(C(=O)OC)CO[C@H]3[C@H]4O[C@]5(C)[C@H](C6=CCOC6=O)C[C@H](O)[C@]5(O)[C@@]4(C)[C@H]4[C@]1(CO[C@]4(O)C(=O)OC)[C@@H]32` ?
64

Need AFI, item `C/C=C(\C)C(=O)O[C@H]1C[C@@H](OC(C)=O)[C@@]2(C(=O)OC)CO[C@H]3C(=O)[C@@](C)([C@]45O[C@@]4(C)[C@H]4C[C@@H]5OC(=O)OCCC4=O)[C@@H]4[C@@](OC)(C(=O)OC)OC[C@@]14[C@@H]32`
63

Need AFI, item C/C=C(\C)C(=O)O[C@H]1C[C@@H](OC(C)=O)[C@@]2(C(=O)OC)CO[C@H]3[C@@H](O)[C@@](C)([C@]45O[C@@]4(C)[C@@H]4C[C@H]5O[C@@H]5OC=C[C@@]54O)[C@H]4[C@]1(CO[C@]4(O)C(=O)OC)[C@@H]32 [AZADIRACHTIN A]
100

Entry `C/C=C(\C)C(=O)O[C@H]1C[C@@H](OC(C)=O)[C@@]2(C(=O)OC)CO[C@@H]3[C@@H]2[C@]12CO[C@](OC)(C(=O)OC)[C@H]2[C@](C)([C@]12O[C@@]1(C)[C@H]1C[C@@H]2O[C@@H]2OCC[C@@]21O)[C@H]3O` has what AFI?
46

# input compound: CCC(C)C(=O)O[C@H]1C[C@@H](OC(C)=O)[C@@]2(C(=O)OC)CO[C@H]3[C@@H](O)[C@@](C)([C@]45O[C@@]4(C)[C@H]4C[C@@H]5O[C@@H]5OCC[C@@]54O)[C@@H]4[C@@](OC)(C(=O)OC)OC[C@@]14[C@@H]32 (stereo partly drawn) ; wanted: its AFI
100

* * *

system: Spodoptera littoralis; assay: Antifeedant activity against final stadium larval stage of Spodoptera littoralis in compound pretreated glass fibre disks assessed as mass of disks eaten at 10 ppm by choice bioassay; assay type: functional
Readout: AFI

So what's the measured AFI for this one? C/C=C(\C)C(=O)O[C@H]1C[C@@H](OC(C)=O)[C@@]2(C(=O)OC)CO[C@H]3C(=O)[C@@](C)([C@]45O[C@@]4(C)[C@H]4C[C@@H]5O[C@@H]5OC=C[C@@]54O)[C@H]4[C@]1(CO[C@]4(O)C(=O)OC)[C@@H]32 [7-KETOAZADIRACHTIN]
23%

# lookup: AFI of `C/C=C(\C)C(=O)O[C@H]1C[C@@H](OC(C)=O)[C@@]2(C(=O)OC)CO[C@H]3[C@@H](O)[C@@](C)([C@]45O[C@@]4(C)[C@H]4C[C@@H]5O[C@@H]5OCC[C@@]54O)[C@@H]4[C@@](OC)(C(=O)OC)OC[C@@]14[C@@H]32`
100%

What value of AFI has been reported for the following molecule? `C/C=C(\C)C(=O)O[C@H]1C[C@@H](OC(C)=O)[C@@]2(C(=O)OC)CO[C@H]3C(=O)[C@@](C)([C@]45O[C@@]4(C)[C@H]4C[C@@H]5O[C@@H]5OCC[C@@]54O)[C@@H]4[C@@](OC)(C(=O)OC)OC[C@@]14[C@@H]32`
100%

For the molecule shown here, `C/C=C(\C)C(=O)O[C@H]1C[C@@H](OC(C)=O)[C@@]2(C(=O)OC)CO[C@@H]3[C@@H]2[C@]12CO[C@](OC)(C(=O)OC)[C@H]2[C@@]1(C)[C@@]32O[C@H]3C[C@@H]([C@@]4(OC)CCO[C@@H]4OC)[C@@](C)(O2)[C@]31O` , give the reported AFI.
31%
